Ref: patent US10004732B2

# key: entry, value: pIC50
- assayTarget: PI 3-kinase gamma (Homo sapiens, UniProt P48736)
- Sequence (P48736 whole entry): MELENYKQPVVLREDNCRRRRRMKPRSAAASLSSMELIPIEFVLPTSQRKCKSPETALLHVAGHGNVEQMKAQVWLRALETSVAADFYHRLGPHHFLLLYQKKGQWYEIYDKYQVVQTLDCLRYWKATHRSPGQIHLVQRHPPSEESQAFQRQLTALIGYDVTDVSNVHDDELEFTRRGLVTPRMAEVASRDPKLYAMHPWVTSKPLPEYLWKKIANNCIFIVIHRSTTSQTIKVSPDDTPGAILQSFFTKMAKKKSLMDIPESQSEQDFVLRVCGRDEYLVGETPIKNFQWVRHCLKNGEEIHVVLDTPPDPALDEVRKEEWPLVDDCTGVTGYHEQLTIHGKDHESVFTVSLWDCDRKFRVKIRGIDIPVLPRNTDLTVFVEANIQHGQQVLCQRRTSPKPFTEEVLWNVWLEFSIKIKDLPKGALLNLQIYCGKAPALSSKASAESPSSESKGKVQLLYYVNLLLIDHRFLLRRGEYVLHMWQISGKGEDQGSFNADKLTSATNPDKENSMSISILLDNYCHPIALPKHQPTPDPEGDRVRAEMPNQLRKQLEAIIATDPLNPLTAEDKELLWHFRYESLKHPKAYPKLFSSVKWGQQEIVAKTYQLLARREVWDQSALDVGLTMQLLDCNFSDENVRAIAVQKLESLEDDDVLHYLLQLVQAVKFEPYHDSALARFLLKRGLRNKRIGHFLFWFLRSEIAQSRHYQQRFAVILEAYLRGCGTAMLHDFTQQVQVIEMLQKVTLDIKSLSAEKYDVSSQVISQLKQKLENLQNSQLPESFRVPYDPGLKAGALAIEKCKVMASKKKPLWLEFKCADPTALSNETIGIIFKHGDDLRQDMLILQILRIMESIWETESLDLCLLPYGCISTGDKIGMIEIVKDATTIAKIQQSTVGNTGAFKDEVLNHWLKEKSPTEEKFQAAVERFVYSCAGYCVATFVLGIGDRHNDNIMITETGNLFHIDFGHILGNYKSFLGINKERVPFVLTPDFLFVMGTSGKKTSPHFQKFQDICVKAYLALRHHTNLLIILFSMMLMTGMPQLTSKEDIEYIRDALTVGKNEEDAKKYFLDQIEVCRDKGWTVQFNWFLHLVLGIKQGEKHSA
- experimentSummary: TR-FRET Adapta assay, assay E
- Assay type: biochemical
- assayContext: read-out: Assay E PI3Kγ IC50
pIC50: −log10 of the molar value.

compound: Cc1ccc(S(=O)(=O)NCCC(C)(C)O)cc1-c1cnc(N)c(-c2cnn(C(C)C)c2)n1
assayTarget: PI 3-kinase gamma (Homo sapiens, UniProt P48736)
pIC50: 8.15
//
compound: Cc1ccc(S(=O)(=O)NCC[C@@H](O)C(F)(F)F)cc1-c1cnc(N)c(-c2cn(C)nc2C)n1 (single isomer, unassigned) [Example 52a]
assayTarget: PI 3-kinase gamma (Homo sapiens, UniProt P48736)
pIC50: 7.80
//
compound: Cc1ncc(-c2nc(-c3cc(S(=O)(=O)NCC(C)(C)O)ccc3C)cnc2N)o1
assayTarget: PI 3-kinase gamma (Homo sapiens, UniProt P48736)
pIC50: 7.24
//
compound: Cc1ccc(S(=O)(=O)NCCC(C)(C)O)cc1-c1cnc(N)c(-c2csc(CN3CCOCC3)c2)n1
assayTarget: PI 3-kinase gamma (Homo sapiens, UniProt P48736)
pIC50: 7.62
//
compound: COCCCNS(=O)(=O)c1ccc(C)c(-c2cnc(N)c(-n3cncn3)n2)c1
assayTarget: PI 3-kinase gamma (Homo sapiens, UniProt P48736)
pIC50: 6.49
//
compound: Cc1ccc(S(=O)(=O)NCCC(C)(C)O)cc1-c1cnc(N)c(-c2cnn(C)n2)n1
assayTarget: PI 3-kinase gamma (Homo sapiens, UniProt P48736)
pIC50: 7.68
//
compound: Cc1ccc(S(=O)(=O)NCC2(C)COC2)cc1-c1cnc(N)c(-c2cnn(C)c2)n1
assayTarget: PI 3-kinase gamma (Homo sapiens, UniProt P48736)
pIC50: 7.92
//
compound: Cc1cn(-c2nc(-c3cc(S(=O)(=O)NCC(C)(C)O)ccc3C)cnc2N)c(C)n1
assayTarget: PI 3-kinase gamma (Homo sapiens, UniProt P48736)
pIC50: 6.07
//
compound: Cc1ncc(-c2nc(-c3cc(S(=O)(=O)NCC4CCOCC4)ccc3C)cnc2N)s1
assayTarget: PI 3-kinase gamma (Homo sapiens, UniProt P48736)
pIC50: 7.74
//
compound: Cc1ccc(S(=O)(=O)NCCC(C)(C)O)cc1-c1cnc(N)c(-c2cnc(C3CC3)s2)n1
assayTarget: PI 3-kinase gamma (Homo sapiens, UniProt P48736)
pIC50: 8.22
//
compound: Cc1ncc(-c2nc(-c3cc(S(=O)(=O)N4CC(CO)C4)ccc3C)cnc2N)s1
assayTarget: PI 3-kinase gamma (Homo sapiens, UniProt P48736)
pIC50: 6.89
//
compound: Cc1ncc(-c2nc(-c3cc(S(=O)(=O)NCC4CCCCO4)ccc3C)cnc2N)s1 (centres unmarked)
assayTarget: PI 3-kinase gamma (Homo sapiens, UniProt P48736)
pIC50: 8.05
//
compound: Cc1ccc(S(=O)(=O)NCC[C@@H](O)C(F)(F)F)cc1-c1cnc(N)c(-c2cn(C)nc2C)n1 (single isomer, unassigned) [Example 52b]
assayTarget: PI 3-kinase gamma (Homo sapiens, UniProt P48736)
pIC50: 7.59
//
compound: Cc1ncn(-c2nc(-c3cc(S(=O)(=O)NCC(C)(C)O)ccc3C)cnc2N)n1
assayTarget: PI 3-kinase gamma (Homo sapiens, UniProt P48736)
pIC50: 7.10
//
compound: Cc1ccc(S(=O)(=O)NCCC(C)(C)O)cc1-c1cnc(N)c(-c2cc(C(F)(F)F)nn2C)n1
assayTarget: PI 3-kinase gamma (Homo sapiens, UniProt P48736)
pIC50: 6.93
//
compound: Cc1noc(-c2nc(-c3cc(S(=O)(=O)N[C@H]4CC[C@H](O)CC4)ccc3C)cnc2N)n1
assayTarget: PI 3-kinase gamma (Homo sapiens, UniProt P48736)
pIC50: 8.52
//
compound: Cc1ccc(S(=O)(=O)NC2CC3(CC(O)C3)C2)cc1-c1cnc(N)c(-n2cncn2)n1 (single isomer, unassigned) [Example 70a]
assayTarget: PI 3-kinase gamma (Homo sapiens, UniProt P48736)
pIC50: 7.60
